System: MDA-MB-231 breast
experimental_protocol: NCI-60 one-dose screen, 48 h
conditions: 10 µM unless noted
This is part of a sample that, as a whole, favours compounds with a hit. Of some 83,000 tested, about 20% had one in any assay. Active and inactive are the calls of the source. Rule for the calls: active = growth percent below 10; inactive = the rest.
Possible outcomes: true (1) = active, false (0) = inactive

> print(dat)
                                    compound  label.class
 1                     Cc1ccccc1NC(=O)CN(C)C    false (0)
 2  Cc1ccc(S(=O)(=O)Nc2sccc2-c2nc(-c3ccccc3)no2)cc1    false (0)
 3  CS(=O)(=O)c1ccc(-c2nc3cc(Cl)ccc3n2CC(=O)NO)cc1    false (0)
 4  CCN(CC)S(=O)(=O)c1ccc(O)c(NC(=O)c2[nH]c(C)c(C(C)=O)c2CCc2ccc(Cl)cc2)c1    false (0)
 5  C=C1C(=O)O[C@H]2[C@H]1CC/C(COC(=O)/C=C\C(=O)NCc1ccc(Cn3c(=O)sn(CCCC)c3=O)cc1)=C\CC[C@@]1(C)O[C@@H]21     true (1)
 6  COc1cc2c(cc1OC)-c1ccc3cc4c(cc3c1N(CCN(C)C)C2)OCO4     true (1)
 7  CCOc1cc(C2C(Cl)C(=O)N2n2cnnc2)ccc1O (stereo not drawn)    false (0)
 8  CC(C)c1ccc(NC(=O)Cc2ccc(Nc3ncnc4cc(-c5cnn(CCN(C)C)c5)ccc34)cc2)cc1     true (1)
 9  COC(=O)CCCNC(=O)C(=O)c1c(O)c(O)c(C(C)C)c2cc(C)c(-c3c(C)cc4c(C(C)C)c(O)c(O)c(C(=O)C(=O)NCCCC(=O)OC)c4c3O)c(O)c12     true (1)
10  c1ccc([P+](CCCc2n(Cc3ccc4ccccc4c3)c3ccccc3[n+]2Cc2ccc3ccccc3c2)(c2ccccc2)c2ccccc2)cc1    false (0)
11         CC(=O)c1cc2c(o1)C(=O)c1ccccc1C2=O     true (1)
12  O=C(O)C1C[C@](O)(c2ccc(F)cc2)[C@@H](c2ccc(F)cc2)O1 (stereo partly drawn)    false (0)
13  C=C(C)[C@@H]1CC[C@]2(CO)CC[C@]3(C)[C@H](CC[C@@H]4[C@@]5(C)C=C(C#N)C(=O)C(C)(C)[C@@H]5CC[C@]43C)[C@@H]12    false (0)
14  COc1cc(C(=O)/C=C/c2c(-c3ccc(F)cc3)nc3ncccn23)cc(OC)c1OC    false (0)
15  CCCN1CCN(c2ccc3nc(-c4ccc5nc(-c6cc(OC)c(OC)c(OC)c6)[nH]c5c4)[nH]c3c2)CC1    false (0)
16              CSc1ncc(C)c(Nc2ccc(Cl)cc2)n1    false (0)
17  COc1ccc2c(c1)/C(=C\c1sc(=S)[nH]c1O)C(C(=O)O)=N2    false (0)
18  N=C(N)c1ccc(-c2ccc(-c3ccc(Cl)c(Cl)c3)o2)nc1     true (1)

====

Test system: HCC-2998 colon
experimental_protocol: NCI-60 one-dose screen, 48 h
conditions: 10 µM unless noted
This is part of a sample that, as a whole, favours compounds with a hit. Of some 83,000 tested, about 20% had one in any assay. Activity calls are given as the source filed them. Rule for the calls: active = growth percent below 10; inactive = the rest.
Possible outcomes: active, inactive

> print(dat)
                                    molecule  label.class
 1  Cn1cc(Nc2nccc(-c3ccc(N4CCCC4)c(C#N)c3)n2)cn1     inactive
 2  C[C@@H]1C(=O)N(C[C@H](Cc2ccccc2)NC(=O)OCc2ccccc2)[C@]1(Cc1ccccc1)C(=O)OC(C)(C)C     inactive
 3       O=C1C=CC(=Nc2cc(Br)c(O)c(Br)c2)C=C1     inactive
 4  COc1ccc(-c2nc3sc4c(c3c(=O)[nH]2)CCCC4)c2ccccc12     inactive
 5              CCCCCCNc1cc(C)nc2ccc(OC)cc12     inactive
 6  O=C(NCCN1CCC(O)CC1)c1cc2c(o1)C(=O)c1ccccc1C2=O       active
 7  COc1ccc(C(=O)/C=C/c2cc3c(c(OC)c2)OCC(=O)N3)cc1     inactive
 8        CCCc1nc2ccccn2c1Nc1ccc(C(=O)NO)cc1     inactive
 9  O=C1NN(C(=O)c2ccc(O)cc2)C(c2ccccc2)=N/C1=C\c1cn(-c2ccccc2)nc1-c1ccccc1     inactive
10  CN1CCN(c2ccc(Nc3ncc(Cl)c(NC[C@@H]4CCCO4)n3)cc2)CC1     inactive
11    N#C/C(=C\c1ccc2c(c1)OCO2)n1nnc2ccccc21       active
12  O=C(CCCCCCCn1cc(-c2cccnc2)nn1)Nc1ccccc1-c1ccccc1     inactive
13  COc1cc(C(=O)/C=C/c2c(-c3ccc(F)cc3)nc3ncccn23)cc(OC)c1OC     inactive
14  C=C(C)C1CCC(=C)C2CCC3(C)OC12/C=C(/COC(C)=O)CCC3O (configuration not stated)     inactive
15  COc1ccc(Cn2cnc3cc(C(=O)Nc4cccc5ccccc45)ccc32)c(OC)c1       active
16  CS(=O)(=O)c1ccc(-c2nc3cc(Cl)ccc3n2CC(=O)NO)cc1     inactive
17  N#Cc1c(N)nc2c(nnn2-c2cccc(C(F)(F)F)c2)c1N     inactive
18  CCOc1cc(C2C(Cl)C(=O)N2n2cnnc2)ccc1O (configuration not stated)     inactive
19                CNC1(C#N)CCN(Cc2ccccc2)CC1     inactive
20  CS(=O)(=O)c1ccc(-c2nc3cc(Cl)ccc3n2CC(=O)N/N=C/c2ccc(Cl)cc2)cc1     inactive
21  CCCCOc1ccc(NC(=O)n2nc(N=NN(C)C)c3ccc(Cl)cc32)cc1     inactive
22  O=C1c2ccccc2C(=O)c2cc(Cn3cc[n+](Cc4ccc5ccccc5c4)c3)ccc21     inactive
23  CCOC(=O)C1=C(C)NC(SCc2nnc(-c3ccc(Cl)cc3)o2)=NC1c1ccc(Cl)cc1Cl (configuration not stated)     inactive
24  Nc1c(C(=O)c2ccc(Cl)s2)sc2nc3c(cc12)CCCC3     inactive
25  C=CC(=O)N[C@@H](Cc1ccc(-c2cc(Cl)cc(Cl)c2)cc1)[C@@H](O)[C@H](O)C(=O)O     inactive
26  COc1ccc(/C(C)=C(\c2ccc(Cl)cc2)c2ccc(OCCN3CCCCC3)cc2)cc1F     inactive
27  COc1cc(/C=C2\C=C(c3ccccc3)N(CCc3ccccc3)C2=O)cc(OC)c1OC     inactive
28  CCOc1ccc(S(=O)(=O)c2ccc(C)cc2)c2c1no[n+]2[O-]     inactive
29       CCCCCOC(=O)c1ccc(NC(=O)CNCC(C)C)cc1     inactive
30        Cc1c2c(cn1Cc1ccccc1)CCc1cn(C)nc1-2     inactive
31  c1ccc2c(c1)ncn2-c1nc2ccccc2n2c1nc1ccccc12     inactive
32  C=C1C(=O)O[C@H]2[C@H]1CC/C(Cn1cc(CNCCc3c[nH]c4ccc(Cl)cc34)nn1)=C\CC[C@@]1(C)O[C@@H]21     inactive
33  CN(C)CCC(O)(Cc1ccccc1)c1ccccc1 (configuration not stated)     inactive
34                                     CNC=O     inactive
35  O=C(Nc1ccccn1)[C@H](O)[C@@H](O)C(=O)N1CCOCC1     inactive
36  Cc1cc(-c2noc(C(F)(F)F)n2)ccc1N1CCN(c2cc(C(=O)N(C)C)no2)CC1     inactive
37  C=C(C=O)C1CCC2(C(=O)O)CCC3(C)C(CCC4C5(C)CCC(O)C(C)(C)C5CCC43C)C12 (configuration not stated)       active
38  COc1cc2c(O)n(CCCn3ccnc3)c3c4cnc5cccc(c(=O)c3c2cc1OC)c54     inactive
39                CCN(CC)CCOC(=O)Nc1ccccc1Cl     inactive
40  COc1ccc(/C(C)=C(\c2ccc(Cl)cc2)c2ccc(OCCN3CCCC3)cc2)cc1F     inactive
41  Nc1c(-c2nc3ccccc3c(=O)[nH]2)nnn1-c1ccc(Cl)cc1     inactive
42  CCCN1CCN(c2ccc3nc(-c4ccc5nc(-c6ccc(OCC)c(OCC)c6)[nH]c5c4)[nH]c3c2)CC1       active

====

Tested on: LOX IMVI melanoma
experimental_protocol: NCI-60 one-dose screen, 48 h (100 = growth as untreated, 0 = no growth, -100 = all killed)
conditions: 10 µM unless noted
This is part of a sample that, as a whole, favours compounds with a hit. Of some 83,000 tested, about 20% had one in any assay.
measured_quantity: growth (%)

> print(dat)
                                   compound      target.entity  number
1   Nc1ccc2c(S(=O)(=O)O)ccc(S(=O)(=O)O)c2c1  LOX IMVI melanoma    98.1
2  CCCCCCCCn1cc(C2=C(c3coc4ccc(OC)cc34)C(=O)NC2=O)c2ccccc21  LOX IMVI melanoma    61.2
3  O=C1c2ccccc2C2(c3ccc(O)cc3)c3ccccc3Oc3cccc1c32 (stereo not given)  LOX IMVI melanoma    28.3
4  CN(C)c1ccc(-c2cc(-c3ccc(Nc4nc(Nc5ccccc5)nc(Nc5ccc(Cl)cc5)n4)cc3)nc(N)n2)cc1  LOX IMVI melanoma    38.1
5  Cc1cc(NS(=O)(=O)c2ccccc2)c(OS(=O)(=O)c2ccccc2)cc1C  LOX IMVI melanoma    99.3
